Field: normalized growth. Provide a value for each of the compounds that follow.
- Experiment summary: chemical genetic growth profiling, strain panel (AID 1159580);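 note: tested at 20 µM; growth read once vehicle control cultures reached saturation at 30 °C; 1 = growth at the plate median or of vehicle wells; lower values mean less growth of the strain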
- Settings: S. cerevisiae deletion strains, growth OD, locus YBR171W, strain sec66, active compounds read low
Hit rate of the full screen: of about 5,500 compounds, about 2,000 (36%) were called active. Not shown: some 18% with an inconclusive outcome. Some of the results follow.
Keep the answer to the number alone.

Challenge: # lookup: normalized growth of CC(=O)O[C@H]1CC[C@@]2(C)C(=CC(=O)C3C4CCC(C(C)CCCC(C)C)[C@@]4(C)CCC32)C1 (some centres not stated)
Response given: 0.996

Challenge: Any idea what normalized growth was measured for "Cc1scc2c1N(C(=O)CN1CCN(C)CC1)c1ccccc1NC2=O" ?
Response given: 0.954

Challenge: Would you kindly share the measured normalized growth for "O=C(OCc1ccccc1)c1ccccc1" ?
Response given: 0.927

Challenge: Quick one: normalized growth of "O=C1NC(O)=NC1(c1ccccc1)c1ccccc1" ?
Response given: 1.02

Challenge: If you can, please state the reported normalized growth value of "CCCSc1ccc2nc(NC(=O)OC)[nH]c2c1" .
Response given: 1.02

Challenge: Look up normalized growth for this compound: "O=C(OOC(=O)c1ccccc1)c1ccccc1"
Response given: 0.948

Challenge: Form field: reported normalized growth of CC(C)CCCC(C)[C@H]1CCC2C3C(=O)C=C4C[C@@H](O)CC[C@]4(C)C3CC[C@@]21C (some centres not stated)
Response given: 1

Challenge: Given the entry CC12CCC(=O)C=C1CCC1C2[C@@H](O)CC2(C)C1CC[C@]2(O)C(=O)COP(=O)(O)O (some centres not stated) , report its measured normalized growth.
Response given: 1

Challenge: Which normalized growth is listed for "CCCOc1ccc2nc(NC(=O)OC)[nH]c2c1" ?
Response given: 1.02

Challenge: Given "CCN(CC)CCOC(=O)C1(C2CCCCC2)CCCCC1" , state its recorded normalized growth.
Response given: 0.987

Challenge: Quick one: normalized growth for "NS(=O)(=O)c1cc2c(cc1Cl)NC(CSCc1ccccc1)=NS2(=O)=O" ?
Response given: 1.03

Challenge: Which normalized growth value is on record for "Cc1cn[nH]c1" ?
Response given: 1.04

====

- Experiment summary: chemical genetic growth profiling, strain panel (AID 1159580);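 note: tested at 20 µM; growth read once vehicle control cultures reached saturation at 30 °C; 1 = growth at the plate median or of vehicle wells; lower values mean less growth of the strain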
- Settings: S. cerevisiae deletion strains, growth OD, locus YNL128W, strain TEP1, active compounds read low
About 2,000 (36%) of roughly 5,500 compounds were called active. Another 18% or so got no clear call; they are omitted. This is one part of the list.
One threshold, 1, splits the recorded normalized growth values: lower ones are criterion met, equal or higher ones are criterion not met.

Challenge: Check if normalized growth falls below 1 for "CC(=O)N[C@@H](Cc1c[nH]c2ccccc12)C(=O)OCc1cc(C(F)(F)F)cc(C(F)(F)F)c1" .
Response given: criterion not met

Challenge: Criterion: normalized growth strictly below 1. Is it met by "Clc1ccc(Sc2ncnc3ccsc23)cc1" ?
Response given: criterion met

Challenge: Quick check: does CC(Cc1cccc(C(F)(F)F)c1)NCCOC(=O)c1ccccc1 (configuration not stated) have normalized growth under 1?
Response given: criterion met

====

- Experiment summary: chemical genetic growth profiling, strain panel (AID 1159580);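 note: tested at 20 µM; growth read once vehicle control cultures reached saturation at 30 °C; 1 = growth at the plate median or of vehicle wells; lower values mean less growth of the strain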
- Settings: S. cerevisiae deletion strains, growth OD, locus YLR058C, strain SHM2 (second series)
Among all 5,500 compounds or so, about 2,000 (36%) were called active. Inconclusive results (about 18%) are left out. Cut-off read from the data, not from the text of the source: active = normalized growth mostly below about 0.91 (no sharp cut-off); inconclusive = no clear call, values can overlap the other calls; inactive = mostly above about 0.92. The list shows a part of the results.
Your reply should match one of these outcome classes. active, inactive

Challenge: Hi, sorry to bother you, what did the test record for "CC(C)(C)c1cc(C(=O)NNC(=O)c2cc(C(F)(F)F)cc(C(F)(F)F)c2)n(Cc2ccc(F)cc2)n1" ?
Response given: inactive

Challenge: Write down the call the test reported for this molecule. Item: "Cn1c(CSc2ccccc2)n[nH]c1=S"
Response given: inactive

Challenge: Which outcome was assigned to "Cc1ccc(-c2nn[nH]n2)cc1Cl" in this test?
Response given: inactive

Challenge: Returns: the outcome recorded for "Nc1ccc2nonc2c1N" in this assay.
Response given: inactive

Challenge: Give the logged outcome of this assay for the following molecule: "OCc1ccccc1-c1ccccc1"
Response given: inactive

Challenge: Which outcome did this test record for the molecule Clc1cncc(Cl)c1N/N=C\C1CC2C=CC1C2 (stereo not given) ?
Response given: inactive

Challenge: Please state the recorded outcome for this molecule: FC(F)(F)c1cc(-c2noc(C3CCc4ccccc4O3)n2)cc(C(F)(F)F)c1 (stereo not given)
Response given: inactive

Challenge: Hi, sorry to bother you, what did the test record for "CCOC(=O)CSc1nc2cc(C(F)(F)F)cnc2n1C" ?
Response given: inactive

Challenge: Outcome? "NC(=S)CSc1ccccc1"
Response given: inactive

Challenge: // return assay outcome for CSc1sc(C#N)c2c1C(O)CCC2 (stereo not given)
Response given: inactive

Challenge: Tell me the assay call for "CCOC(CN(c1ccc(F)cc1)S(=O)(=O)c1ccc(F)cc1F)OCC" please.
Response given: inactive

Challenge: Could you kindly confirm the outcome this assay logged for "Cn1ncc(C(=O)O/N=C(/N)c2cc(C(F)(F)F)cc(C(F)(F)F)c2)c1-n1cccc1" ?
Response given: inactive

Challenge: What outcome does the record of this test show for "NNC(=S)Nc1ccc2c(c1)OCCO2" ?
Response given: inactive

Challenge: Which outcome was assigned to "C=Cc1c(SC)sc(C(=O)O)c1C" in this test?
Response given: active

Challenge: Hi, do you know how "COc1c(Br)cc(/C(N)=N\OC(=O)c2c(-c3c(Cl)cccc3Cl)noc2C)cc1Br" came out in this test?
Response given: inactive

Challenge: Dear all, I need the recorded test outcome for "O=C(O)CCCNCc1cccc2ccccc12" , thank you.
Response given: inactive

Challenge: Check the results log: what was the call for "Cc1cc(C)c(Cn2nc(C(C)(C)C)cc2C(=O)Nc2cccc(C(F)(F)F)c2)c(C)c1" ?
Response given: inactive

Challenge: Field: outcome | Entry: "COC(=O)C/C(N)=C(\C#N)C(=O)OC"
Response given: inactive

Challenge: What outcome does the record of this test show for "CCCCCCc1cc2c(C)cc(=O)oc2cc1O" ?
Response given: inactive

Challenge: Kindly provide the recorded test outcome for the following molecule: "Cc1cccc(Cn2nc(C(C)(C)C)cc2C(=O)O)c1"
Response given: inactive

====

Would you kindly list normalized growth for each of these compounds?
- Experiment summary: chemical genetic growth profiling, strain panel (AID 1159580);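 note: tested at 20 µM; growth read once vehicle control cultures reached saturation at 30 °C; 1 = growth at the plate median or of vehicle wells; lower values mean less growth of the strain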
- Settings: S. cerevisiae deletion strains, growth OD, locus YNL067W, strain RPL9B, active compounds read low
Out of some 5,500 compounds screened, about 2,000 (36%) were called active. Roughly 18% stayed inconclusive and do not appear here. Some of the results follow.
Response field accepts a number only; no unit should be typed.

Challenge: Consider the compound shown here: "C=C1c2cccc(O)c2C(O)=C2C(=O)[C@]3(O)C(O)=C(C(N)=O)C(=O)[C@@H](N(C)C)[C@@H]3[C@@H](O)[C@H]12" What is its recorded normalized growth?
Response given: 0.95

Challenge: Query (compound): "C=C1c2c(Cl)ccc(O)c2C(O)=C2C(=O)[C@]3(O)C(O)=C(C(N)=O)C(=O)[C@@H](N(C)C)[C@@H]3[C@@H](O)[C@H]12" ; field requested: normalized growth
Response given: 0.93

Challenge: Entry "COC(=O)c1c(OC)cc2c(c1C)Oc1c(Cl)c(OC(C)=O)c(Cl)c(C)c1C(=O)O2" has what normalized growth?
Response given: 1.02

Challenge: Give its normalized growth value. Item: "COC(=O)c1c(C)c2c(c(C)c1OC)OC(=O)c1c(C)c(Cl)c(OC)c(Cl)c1O2"
Response given: 1.02

Challenge: Given the compound CCN1CCN(C(=O)NC(C(=O)N[C@@H]2C(=O)N3[C@@H]2SC(C)(C)[C@@H]3C(=O)O)c2ccccc2)C(=O)C1=O (stereo partly drawn) , what is its reported normalized growth?
Response given: 1.01

Challenge: Fill blank: measured normalized growth of the compound "O=C(O)C1=CCCNC1" is ____.
Response given: 1.03

Challenge: Report normalized growth for CCC(C)C(=O)OC1[C@@H]2CC3=C4CC(=O)O[C@@H](c5ccoc5)[C@]4(C)CCC3[C@@](C)(C2=O)[C@@H](CC(=O)OC)C1(C)C (stereo partly drawn) please.
Response given: 1.03

Challenge: Sample "CCOC(=O)NNc1nncc2ccccc12" — what was its normalized growth?
Response given: 1.01
